For each record, write down the corresponding normalized growth.
experiment: chemical genetic growth profiling, strain panel (AID 1159580);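 further: tested at 20 µM; growth read once vehicle control cultures reached saturation at 30 °C; 1 = growth at the plate median or of vehicle wells; lower values mean less growth of the strain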; conditions: S. cerevisiae deletion strains, growth OD, locus YML120C, strain ndi1, hits give low values
Hit rate of the full screen: of about 5,500 compounds, about 2,000 (36%) were called active. Roughly 18% stayed inconclusive and do not appear here. The list shows a part of the results.
Numbers only.

{"columns": ["MOLECULE", "MEASURED"],
 "data": [
  ["COC(=O)Nc1nc2ccc(S(=O)c3ccccc3)cc2[nH]1 (stereo unspecified)", 0.998]
]}

Give normalized growth for each of the items listed below.
1. N=C(N)c1ccc(OCCCCCOc2ccc(C(=N)N)cc2)cc1
2. CCCCCCCCCCCCCCC(C(=O)O)C(O)(CC(=O)OC)C(=O)O (stereo unspecified)
3. COC(=O)Nc1nc2ccc(Sc3ccccc3)cc2[nH]1
4. OC(CCN1CCCCC1)(c1ccccc1)C1CC2C=CC1C2 (stereo unspecified)
5. CCC(C)C(NC)C(=O)O (stereo unspecified)
6. NNC(=O)c1ccncc1
7. OC(CCN1CCCCC1)(c1ccccc1)C1CCCCC1 (stereo unspecified)
8. COC(=O)C[C@H]1C(C)(C)C(=O)[C@@H]2CC3C4=CC(=O)O[C@@H](c5ccoc5)[C@]4(C)CCC3[C@@]1(C)C2=O (stereo partly specified)

[0.956, 1.02, 0.98, 0.981, 1.01, 1.06, 0.97, 0.992]

Give normalized growth for each of the items listed below.
1. CCCCCCCCCCCC[C@H](C(=O)O)[C@@H](C)C(=O)O
2. CC(C)(Oc1ccc(CCNC(=O)c2ccc(Cl)cc2)cc1)C(=O)O

[0.991, 1.03]

====

assay: chemical genetic growth profiling, strain panel (AID 1159580);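 further: tested at 20 µM; growth read once vehicle control cultures reached saturation at 30 °C; 1 = growth at the plate median or of vehicle wells; lower values mean less growth of the strain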; conditions: S. cerevisiae deletion strains, growth OD, locus YNL222W, strain SSU72, hits give low values
In all, about 5,500 compounds went through this assay and about 2,000 (36%) were called active. Not shown: some 18% with an inconclusive outcome. The list shows a part of the results.
PARAMETER: normalized growth
Numbers only.

Give normalized growth for each of the items listed below.
1. COc1ccc2nc3ccccc3c(N)c2c1
2. Cc1nc(-c2ccccn2)nc(N(C)Cc2ccccc2)c1Cl
3. CSc1n[nH]c(-c2cc(C(F)(F)F)cc(C(F)(F)F)c2)n1
4. N#Cc1c2ccccc2nc2ccccc12
5. Clc1cc(Cl)cc(-c2nc(SCc3ccc(Cl)cc3Cl)n[nH]2)c1
6. O=C(NCC1COc2ccccc2O1)c1ccc(Cl)cc1 (configuration not stated)

1: 0.638; 2: 0.96; 3: 0.927; 4: 0.825; 5: 0.987; 6: 0.948

The reported normalized growth of the compound "Nc1ccc(Sc2ccccc2)nc1Sc1ccccc1" was 0.951

====

experiment: chemical genetic growth profiling, strain panel (AID 1159580);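 further: tested at 20 µM; growth read once vehicle control cultures reached saturation at 30 °C; 1 = growth at the plate median or of vehicle wells; lower values mean less growth of the strain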; settings: S. cerevisiae deletion strains, growth OD, locus YLR357W, strain rsc2, hits give low values
About 2,000 (36%) of roughly 5,500 compounds were called active. Another 18% or so got no clear call; they are omitted. Some of the results follow.
For each record, write down the corresponding normalized growth.
Answers are plain numbers.

Completed entries (count: 5):
{"columns": ["MOLECULE", "normalized growth"],
 "data": [
  ["OC(CCN1CCCC1)(c1ccccc1)C1CCCCC1 (stereo unspecified)", 0.973],
  ["COc1ccc2[nH]cc(CCN)c2c1", 0.991],
  ["O=C1C(O)=C(O)C(=O)C(O)=C1O", 0.989],
  ["N#CC(O[C@@H]1O[C@H](CO[C@@H]2O[C@H](CO)[C@@H](O)[C@H](O)[C@H]2O)[C@@H](O)[C@H](O)[C@H]1O)c1ccccc1 (stereo partly specified)", 0.948],
  ["OC(CCN1CCCCC1)(c1ccccc1)C1CC2C=CC1C2 (stereo unspecified)", 0.995]
]}

Give normalized growth for each of the items listed below.
1. CC(=O)NC(C(=O)O)C(C)(C)SN=O (stereo unspecified)
2. C/C=C1\[C@H]2C=C(C)C[C@]1(N)c1ccc(=O)[nH]c1C2
3. CCN1C[C@]2(OC(=O)c3ccccc3NC(C)=O)CCC(OC)[C@]34C1[C@H](CC23)[C@@]1(O)CC(OC)[C@H]2CC4C1(O)[C@H]2OC (stereo partly specified)
4. CC1=NS(=O)(=O)c2cc(Cl)ccc2N1
5. CC(=O)/C=C\[C@@H]1[C@@]2(C)CCCC(C)(C)C2CC[C@@]1(C)O (stereo partly specified)
6. COC(=O)C[C@H]1C(C)(C)C(=O)[C@@H]2CC3C4=CC(=O)O[C@@H](c5ccoc5)[C@]4(C)CCC3[C@@]1(C)C2=O (stereo partly specified)

1. 0.989
2. 1.06
3. 0.945
4. 0.944
5. 0.998
6. 0.977
